Measured Neut IC50 (µg/ml) subtype A, listed per entry for reference.
# system name: RSV F protein of subtype A (strain A2) on recombinant mKate-RSV virus (Respiratory syncytial virus subtype A …, UniProt P03420 26-574)
# protocol text: cell-based or functional assay
Kindly answer with a numeric value in µg/mL, unit omitted.

Reference set (4 entries):
{"binder": "ADI-18885 (antibody, V domains shown, full-length IgG from yeast; also called Antibody Number 241; Ab # 241) VH: EVQLQESGPGLVKPLQTLSVTCSVSGGSISSGDNYWSWIRQRPGKGLEWIGYIYYSGTTYYNPSLKSRVTISADRSKNQFSLKMNSLSAADTAVYYCARDGGYDHIWGTHRYFALWGQGTLVTVSS VL: ETTLTQSPGTLSLSPGERATLSCRASQSVNSDYLAWYQQKLGQAPRLLIYGVSNRATGIPDRFTGSGSGTDFTLTISRLEPEDFAVYHCQQYGTSPWTFGQGTKVEIK", "Neut IC50 (µg/ml) subtype A (µg/mL)": 0.376}
{"binder": "ADI-18900 (antibody, V domains shown, full-length IgG from yeast) VH: EVQLLESGGALVEPGGSLRLSCAASGFSFNTYSMNWVRQGPGKGLEWVATISTSTAGSYYADSVRGRFTISRDNSKNTLYLQMNSLRVEDTAVYYCARDQEVELIDDAFDFWGRGTMVTVSS VL: DIVMTQTHSSLSASVGDRVTITCRASQSISIWVAWYQQKPGKAPNLLIYKASSLQSGVPSRFSGSGSGTEFTLTISSLQPDDSATYYCQQYYTYYSFGQGTKLEIK", "Neut IC50 (µg/ml) subtype A (µg/mL)": 0.035}
{"binder": "ADI-18959 (antibody, V domains shown, full-length IgG from yeast; also called Antibody Number 310; Ab # 310) VH: QVQLVQSGAEVKKPGASVRVSCKVYGHTLSELSMHWVRQGPEGGLEWMGAFDHEDGEGIYPQKFQGRITMTADISTDTAHMELRSLRSEDTAVYYCATPTPVGATDFWGQGTLVTVSS VL: DIRVTQSPSSLSASVGDRVTITCRASQSISSYLNWYQQKPGKAPKLLIYAASTLQRGGPSRFSGSGSGTDFTLSISSLQPEDFATYYCQQTYIIPYTFGQGTKLEIK", "Neut IC50 (µg/ml) subtype A (µg/mL)": 7.21}
{"binder": "ADI-18876 (antibody, V domains shown, full-length IgG from yeast) VH: QVQLQESGPGLVKPSQTLSLTCTVSGPSISSGDYYWTWIRQPPGKGLEWIGYIYNSGSTDYNPSLKSRITMSLDRSKNQFSLNLSSVTAADTAVYFCARDVGTLVLPTVAYYYGMDVWGQGTTVTVSS VL: EIVLTQSPGTLSLSPGERATLSCRASESISSSYLAWYQQKPGQAPRLLIYDASSRATGIPDRFSGSGSGTDFTLTISSLEPEDFAVYYCQQYGSSPLVTFGPGTKVDIK", "Neut IC50 (µg/ml) subtype A (µg/mL)": 0.037}

Sample ADI-18969 (antibody, V domains shown, full-length IgG from yeast; also called Antibody Number 317; Ab # 317) VH: QVQLVQSGPEVKKPGASVTVSCKASGYTFSHYGISWVRQAPGQGLEWMGWISAYHGQTNYAQNFQGRVTMTTDTSSNTAYMEVRSLRSDDTAVYFCARDVFSKTAARIFDYWGQGTLVTVSS VL: EIVLTQSPLSLPVTLGQPASISCRSSQSLEYSDGNTYLSWFQQRPGQSPRRLIYKVSNRDSGVPDRFSGSQSGTDFTLKISRVEAEDVGVYYCMQATDWPVTFGQGTKLEIK — what was its Neut IC50 (µg/ml) subtype A?
0.035
